These entries and their values trace back to PubChem BioAssay (NCI).

tested on: NCI-H322M lung; test: NCI-60 one-dose screen, 48 h; settings: 10 µM unless noted
Compounds without any hit were thinned out: in the full panel of roughly 83,000, 20% have a hit. Activity calls are given as the source filed them. Rule for the calls: active = growth percent below 10; inactive = the rest.
Outcome codes: active, inactive

                                    compound  assignedcategory
 0  NC(N)=Nc1ccc(Oc2cccc(Nc3ccc(Br)c(C(F)(F)F)c3)c2)cc1          inactive
 1  O=C(CN1CCN(c2cc(=O)n(-c3ccccc3)c3ccccc23)CC1)Nc1cccc(C(F)(F)F)c1          inactive
 2  C[C@H](CCC(=O)NCc1ccc(C(=O)Nc2ccccc2N)cc1)[C@H]1CC[C@H]2[C@@H]3[C@@H](O)C[C@@H]4C[C@H](O)CC[C@]4(C)[C@H]3CC[C@]12C          inactive
 3  CCOC(=O)C(=O)/C(=C\c1ccc(Cl)cc1)C(=O)N1C(=S)NC(=O)C1CC(C)C (stereo not drawn)          inactive
 4  NS(=O)(=O)c1ccc(Nc2nc(N/N=C/c3ccccn3)nc(Nc3ccccc3)n2)cc1            active
 5  O=c1c2ccccc2nc(COc2ccccc2)n1NS(=O)(=O)c1ccc(Cl)cc1          inactive
 6  O=C(CSc1nc2ccccc2c(=O)n1-c1ccccc1)Nc1cccc(C(=O)/C=C/c2ccccc2Cl)c1          inactive
 7  COc1cc(OC)cc(C(=O)Nc2cccc(C#Cc3cccc4[nH]nc(N)c34)c2)c1          inactive
 8  Cc1ccc(CSc2nc(-c3ccc(Cl)cc3)c(C#N)c(N3CCNCC3)n2)cc1          inactive
 9  Cc1ccc(-c2cc3nc(C(Cl)Cl)nc(-c4cccs4)n3n2)cc1          inactive
10  CCO/C=N/C1=C(C#N)C(c2ccc(F)cc2)c2sc3c(C)cccc3c2O1 (stereo not drawn)          inactive
11  C#C[C@]1(O)CC[C@H]2[C@@H]3CC=C4c5sc(-c6ccc7c(c6)OCO7)nc5CC[C@]4(C)[C@H]3CC[C@@]21C          inactive
12  O=C(O)c1ccc(-n2cc(CNc3cccc(Cl)c3)c(-c3ccc(F)cc3)n2)cc1          inactive
13    O=C1/C(=C/C=C/c2ccco2)SC(=S)N1c1ccccc1          inactive
14  COc1ccc(-n2c(SCc3n[nH]c(=S)o3)nc3ccc(Cl)cc3c2=O)cc1          inactive
15      Cc1ccc(NC(=S)NNC(=S)Nc2ccc(C)cc2)cc1          inactive
16  C#Cc1ccc(C(=O)NCc2ccc(/C=C/C(=O)c3nccn3C)cc2)cc1          inactive
17  O=S(=O)(NCCNc1nccc(-n2cnc3ccccc32)n1)c1ccc(Cl)cc1          inactive
18  O=C1CCCC2=C1C(c1c[nH]c3ccc(Br)cc13)Cc1cc(Br)ccc1N2 (stereo not drawn)          inactive
19  O=C(NCCn1ccnc1)c1ccc(-c2nc3ccc4[nH]ncc4c3c3c2CCCC3)cc1          inactive
20  COc1ccc(/C=C/C(=O)c2cccc(NC(=O)CSc3nc4ccccc4c(=O)n3-c3ccccc3)c2)cc1OC          inactive
21  Brc1ccccc1/C=N/Nc1nc(N/N=C/c2ccccc2Br)nc(N2CCOCC2)n1          inactive
22  Fc1ccc(-c2cc3nc(C(Cl)Cl)nc(-c4ccco4)n3n2)cc1            active
23  COc1c(N2CC3CCCNC3C2)c(F)cc2c(=O)c(C(=O)N/N=C/c3ccc(F)cc3)cn(C3CC3)c12 (stereo not drawn)          inactive
24  CN1CCN(Cc2ccc(NC(=O)c3cncc(C#Cc4cnc5ccc(NCCCO)nn45)c3)cc2C(F)(F)F)CC1            active
25  CNc1ncc2cc(-c3ccc(-c4ncccc4F)cc3Cl)c(=O)n(CC3OCC(N)CO3)c2n1 (stereo not drawn)          inactive
26  COc1ccc(C2CC(c3ccc(Nc4nc(NCCO)nc(N5CCOCC5)n4)cc3)=Nc3c(N)nc(N)nc3N2)cc1 (stereo not drawn)          inactive
27  O=C(CSc1nnc(-c2ccc(Cl)cc2)n1-c1ccccc1)Nc1cccc(Cl)c1          inactive
28  CCc1cccc2c3c(sc12)C(c1ccc(Cl)cc1)C(C#N)=C(/N=C/c1ccc(Cl)cc1)O3 (stereo not drawn)          inactive
29  CC/C(=C/c1cc(OC)ccc1O)c1ccc2cc(OC)ccc2[o+]1          inactive
30        CCCCNNC(=O)c1ccc(-c2cccc(F)c2F)cc1          inactive
31  COc1c(N2CC3CCCNC3C2)c(F)cc2c(=O)c(C(=O)N/N=C/c3ccc4c(c3)OCO4)cn(C3CC3)c12 (stereo not drawn)          inactive
32  CC/C(=C/c1c(O)cccc1OC)c1ccc2c(OC)cccc2[o+]1          inactive
33  Oc1ccc(CSc2nnc(-c3ccc(Cl)cc3)n2-c2ccccc2)c2cccnc12          inactive
34  CC(=O)c1cc(C(=O)N2c3ccccc3Sc3ccccc32)n2ccc3ccccc3c12          inactive
35  Oc1cccc2ccc(-c3nnc(SCc4ccc(O)c5ncccc45)o3)nc12          inactive
36  C#CCNC1CCC(c2csc(C#C)n2)=C1C (stereo not drawn)          inactive
37  CN(C)CCCOc1ccc2c(c1)CN(C(=O)c1cc(C(=O)N3Cc4cccc(F)c4C3)ccc1O)C2          inactive
